# System: RAW 264.7
# Measurement Description: Cytotoxicity assessment (MTT)
# Assay type: cell-based, Murine
# Condition Details: peptide 10 µg/mL, 72 h, replicate 3
Test Readout: Cell viability
Please answer using the number first and the unit second.

// worked examples, Cell viability included
>>> reported("MVVACVLPEA [P16, synthesized peptide identified from jellyfish fraction PUR20C]")
"81.19%"
>>> reported("HSVLTASYRN [P5, synthesized peptide identified from jellyfish fraction PUR20C]")
"81.01%"
>>> reported("PMETDDQPNN [P17, synthesized peptide identified from jellyfish fraction PUR20C]")
"83.65%"

// moving on: another record for Cell viability
Please give the measured Cell viability for this sequence: DAENKENVEE [P18, synthesized peptide identified from jellyfish fraction PUR20C]
94.02%
